assay: Pharmacokinetics in rat (i.v.); type: in vivo, Male Sprague-Dawley rats; details: male, Sprague-Dawley, plasma, iv 1 mg/kg, 60% PEG400 in water
Readout: clearance (mL/min/kg)

>  <Compound>
CC(c1cc(Oc2c(Cl)cc(-n3nc(N)c(=O)[nH]c3=O)cc2Cl)n[nH]c1=O)C1CC1 (single isomer, unassigned) [Compound 1a]

>  <Assay Result>
2.14

$$$$
>  <Compound>
C#Cc1nn(-c2cc(Cl)c(Oc3cc(C(C)C)c(=O)[nH]n3)c(Cl)c2)c(=O)[nH]c1=O [Compound 2, reference compound]

>  <Assay Result>
9.14

$$$$

----------
Reported half-life at 1 μM by item:
test: Microsomal stability assay, rat; type: in vitro ADME; settings: liver microsomes, pH 7.4, 0.5 mg/mL microsomes, read-out: Liver Microsomes T1/2

>  <Compound>
C#Cc1nn(-c2cc(Cl)c(Oc3cc(C(C)C)c(=O)[nH]n3)c(Cl)c2)c(=O)[nH]c1=O [Compound 2, reference compound]

>  <half-life at 1 μM>
> 60 min

$$$$
>  <Compound>
CC(c1cc(Oc2c(Cl)cc(-n3nc(N)c(=O)[nH]c3=O)cc2Cl)n[nH]c1=O)C1CC1 (single isomer, unassigned) [Compound 1a]

>  <half-life at 1 μM>
> 60 min

$$$$

Provenance of the data: patent US12630537B2
